The reported measurements were obtained from paper PMC8093080.

Target: UniProt:Q9X6J6
Sequence (Q9X6J6 1-74): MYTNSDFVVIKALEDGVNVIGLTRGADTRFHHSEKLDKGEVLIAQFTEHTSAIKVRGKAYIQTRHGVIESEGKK
PARAMETER MEASURED: pKd
By convention, pKd is the negative base-10 log of a molar concentration.

Output measured pKd for this item: N[C@@H](Cc1c[nH]c2ccccc12)C(=O)O
6.94
